Quick reference for z-score among some molecules
procedure_details: modulators of glucocorticoid suppression of NF-kB, cell-based, luciferase, IL-1B stimulus, dexamethasone (AID 624486)
condition: NF-kB luciferase reporter, IL-1B + dexamethasone, luminescence; measured here: IL-1B alone, no Dex

Inquiry: State its z-score: "CN1CCC(n2cnc(-c3ccc(F)cc3)c2-c2ccnc(N)n2)CC1"
Reply text: 2.09

Inquiry: For the molecule "Nc1c(C(=O)c2cccc(C(O)(CO)CO)c2)cnn1-c1ccc(F)cc1" , give its reported z-score.
Reply text: 0.905

Inquiry: For the molecule "O=C(O)c1ccc(Oc2nccc(-c3c(-c4ccc(F)cc4)ncn3C3CCNCC3)n2)cc1" , give its reported z-score.
Reply text: -0.04

====

study_system: Cellular tumor antigen p53 (Homo sapiens) (UniProt P04637)
Sequence (P04637 whole entry, looked up): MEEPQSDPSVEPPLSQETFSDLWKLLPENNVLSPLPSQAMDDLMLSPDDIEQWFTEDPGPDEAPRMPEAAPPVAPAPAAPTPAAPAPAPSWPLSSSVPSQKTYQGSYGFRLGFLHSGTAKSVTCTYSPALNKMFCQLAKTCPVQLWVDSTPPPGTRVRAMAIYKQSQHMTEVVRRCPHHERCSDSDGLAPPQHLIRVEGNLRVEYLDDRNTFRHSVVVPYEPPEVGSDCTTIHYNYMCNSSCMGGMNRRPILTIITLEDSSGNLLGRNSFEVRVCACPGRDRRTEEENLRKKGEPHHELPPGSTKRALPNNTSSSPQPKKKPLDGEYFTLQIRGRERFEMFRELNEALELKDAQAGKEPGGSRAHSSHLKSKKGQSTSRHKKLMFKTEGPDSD
procedure_details: kinase inhibitors altering GFP-p53 stability in HPV16-positive cells, imaging, known kinase inhibitor set, EGFP/DsRed ratio (AID 1053116);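 also: test concentration not given here; cells exposed to compounds for 24 h at 37 °C before reading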
condition: stronger effect = higher value; measured here: GFP-p53 positive objects count
Cut-off 4 on EGFP object count, inclusive. At or above means t; below means f.

                                   compound  group_label
0  Cn1cc(C2=C(c3c4n(c5ccccc35)CCC(CN)C4)C(=O)NC2=O)c2ccccc21 (stereo not given)            f
1  CCS(=O)(=O)c1ccc(OC)c(Nc2ncc(-c3cccc(OC)c3)o2)c1            t
2  CC(=O)Nc1cccc(C#Cc2cncnc2Nc2ccc(OCc3cccc(F)c3)c(Cl)c2)c1            f
3  CCCN(CCS(C)(=O)=O)Cc1ccc(-c2ccc3ncnc(Nc4ccc(OCc5cccc(F)c5)c(Cl)c4)c3c2)o1            t

Inquiry: Reported EGFP object count reaches at least 4 for "Cc1ccc(C(=O)NC(C)C)cc1-c1ccc(C(=O)NCC2CC2)cc1" ?
Reply text: f

Inquiry: Quick check, EGFP object count >= 4? "COc1ccc(Nc2ncc(-c3ccccc3)o2)cc1OC"
Reply text: f

Inquiry: Can "Cn1cc(C2=C(c3cn(CCCCCN)c4ccccc34)C(=O)NC2=O)c2ccccc21" be said to have EGFP object count at or above 4?
Reply text: t

Inquiry: # check: EGFP object count of "CCn1c(=O)c(Oc2ccc(F)cc2F)cc2cnc(NC3CCOCC3)nc21" is greater than or equal to 4
Reply text: f

Inquiry: Check the entry COC1CCC2NC3C4NC5CCC(OC)CC5C4C4C(=O)NC(=O)C4C3C2C1 (stereo not given) : does EGFP object count equal or exceed 4?
Reply text: f

Inquiry: Quick check, EGFP object count >= 4? "COc1ccccc1C(=O)c1cnc(NC2CCN(S(C)(=O)=O)CC2)nc1N"
Reply text: t

Inquiry: Does "Cc1cc(O)cc(C)c1/C=C/c1cncc(C(=O)OC(C)(C)C)c1" have a reported EGFP object count of at least 4?
Reply text: t

Inquiry: Check this compound for EGFP object count at or above 4: "O=C1Nc2ccc(C(=O)c3ccco3)cc2/C1=C/c1cc(Cl)c(O)c(Cl)c1"
Reply text: t

Inquiry: Check if EGFP object count >= 4 (inclusive). Item: "Nc1nccc(-c2c(-c3ccc(F)cc3)nn3cc(C(F)(F)F)ccc23)n1"
Reply text: t

Inquiry: Is it the case that "Nc1c(C(=O)c2ccc(C#CCN3CCOCC3)cc2)cnn1-c1ccc(F)cc1" has EGFP object count reaching or exceeding 4?
Reply text: t

Inquiry: Does EGFP object count meet or surpass 4 for "O=C1NC(=NCc2ccccc2)SC1=Cc1ccc2ncccc2c1" ?
Reply text: t

Inquiry: Check this compound for EGFP object count at or above 4: CC1=C(C(=O)Nc2cc(Cl)c3[nH]ncc3c2)C(c2ccc(C(F)(F)F)cc2)CC(=O)N1 (stereo not given)
Reply text: f

Inquiry: Given the entry "CC(=O)Nc1ccc2c(c1)C(c1ccccc1Cl)=Nc1c(n[nH]c1C)N2" , answer whether its EGFP object count meets or surpasses 4.
Reply text: t

Inquiry: Form field: EGFP object count at least 4? Entry: "O=C1NC(=NCCc2cccc(F)c2)SC1=Cc1ccc2ncccc2c1"
Reply text: t

Inquiry: I'd appreciate it if you could say whether "Cn1c(=O)c(Cc2ccccc2F)cc2cnc(NC3CCOCC3)nc21" has EGFP object count at least equal to 4.
Reply text: f

Inquiry: Threshold query (EGFP object count >= 4) on CC(CO)Nc1cc(-c2[nH]c3cccnc3c2-c2ccc(F)cc2)ccn1 (stereo not given)
Reply text: t

Inquiry: Could you verify whether the entry "CCn1c(-c2nonc2N)nc2c(C#CC(C)(C)O)nc(OC[C@H](N)c3ccccc3)cc21" shows EGFP object count of no less than 4?
Reply text: t

Inquiry: Is it the case that "CS(=O)(=O)CCNCc1ccc(-c2ccc3ncnc(Nc4ccc(OCc5cccc(F)c5)c(C(F)(F)F)c4)c3c2)o1" has EGFP object count reaching or exceeding 4?
Reply text: f

Inquiry: Could you tell me if the measured EGFP object count of "CCOc1ccc2c(-c3ccnc(Nc4cccc(C(F)(F)F)c4)n3)cnn2n1" reaches 4 or more?
Reply text: t

These entries and their values trace back to PubChem BioAssay.
